Target: T1, B-cat-Halo (UniProt P35222 1-781)
T1 sequence (looked up): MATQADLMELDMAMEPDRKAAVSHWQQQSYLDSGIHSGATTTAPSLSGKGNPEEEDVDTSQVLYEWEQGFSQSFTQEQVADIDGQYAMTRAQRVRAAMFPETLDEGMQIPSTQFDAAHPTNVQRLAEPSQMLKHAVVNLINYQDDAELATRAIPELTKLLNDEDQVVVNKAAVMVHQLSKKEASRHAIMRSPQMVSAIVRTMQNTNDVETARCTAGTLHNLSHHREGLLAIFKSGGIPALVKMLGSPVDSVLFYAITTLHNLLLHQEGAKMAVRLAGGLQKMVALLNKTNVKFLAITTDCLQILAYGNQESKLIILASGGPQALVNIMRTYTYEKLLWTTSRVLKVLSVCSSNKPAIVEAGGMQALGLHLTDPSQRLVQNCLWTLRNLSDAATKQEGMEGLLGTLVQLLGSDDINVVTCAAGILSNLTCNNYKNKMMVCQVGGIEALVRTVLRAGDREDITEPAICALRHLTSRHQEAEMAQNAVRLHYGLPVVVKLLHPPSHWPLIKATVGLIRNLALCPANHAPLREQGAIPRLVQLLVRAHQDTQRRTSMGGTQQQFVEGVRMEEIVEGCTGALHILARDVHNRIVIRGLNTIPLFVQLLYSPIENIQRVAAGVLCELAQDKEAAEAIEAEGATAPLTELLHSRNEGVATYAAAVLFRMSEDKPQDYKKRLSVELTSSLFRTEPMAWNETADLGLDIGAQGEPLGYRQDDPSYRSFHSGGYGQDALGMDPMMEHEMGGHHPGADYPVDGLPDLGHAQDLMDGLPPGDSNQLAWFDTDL
Test: cell-based or functional assay
Starred links: 1 amine or outer side, 2 acyl side, 3 side chain; linkers in the order of their positions; H or OH if unused. Positions of bridges follow the written chain, without caps; N, C: chain ends. Non-standard residues stand in square brackets, D forms with d. Primed or numbered codes have the meaning given here. PyrS2″ = (S)-3-amino-1-((pent-4-en-1-yloxy)carbonyl)pyrrolidine-3-carboxylic acid (stapling residue), C=CCCCOC(=O)N1CC[C@@](N[*:1])(C(=O)[*:2])C1; B5(5) = 2,2-bis(4-pentenyl)glycine, 2-amino-2-(pent-4-en-1-yl)hept-6-enoic acid (stitching residue), C=CCCCC(CCCC=C)(N[*:1])C(=O)[*:2]; TfeGA = (S)-2-amino-3-((carboxymethyl)(2,2,2-trifluoroethyl)amino)propanoic acid, O=C([C@H](CN(CC(=O)[*:3])CC(F)(F)F)N[*:1])[*:2]; Bta = N[C@@H](Cc1csc2ccccc12)C(=O)O; Lys(iPr) = CC(C)NCCCC[C@H](N)C(=O)O; αAllylPro = C=CC[C@@]1(C(=O)O)CCCN1; tBuAla = CC(C)(C)C[C@H](N)C(=O)O; 3Thi = N[C@@H](Cc1ccsc1)C(=O)O
property label: NanoBRET Abs IC50

Solved cases (2 shown):
- Ac-[αAllylPro]D[tBuAla][B5(5)]D[TfeGA][Lys(iPr)]AFL[PyrS2″][3Thi][Bta]V-NH2 (staple 1-4, 4-11) [I-1763]: > 20 µM
- Ac-[αAllylPro]D[tBuAla][B5(5)]D[TfeGA][Lys(iPr)]AFL[PyrS2″][3Thi][Bta]L-NH2 (staple 1-4, 4-11) [I-1759]: > 20 µM

Now for a further binder.
Fill in reported NanoBRET Abs IC50 for this entry: Ac-[αAllylPro]D[tBuAla][B5(5)]D[TfeGA][Lys(iPr)]AFT[PyrS2″][3Thi][Bta]L-NH2 (staple 1-4, 4-11) [I-1760]
> 20 µM
